target: Recombinant human DPP4 (R&D systems, #9168-SE) (human, UniProt P27487 29-766); assay: cell-based or functional assay
Sequence (P27487 29-766 limits assumed): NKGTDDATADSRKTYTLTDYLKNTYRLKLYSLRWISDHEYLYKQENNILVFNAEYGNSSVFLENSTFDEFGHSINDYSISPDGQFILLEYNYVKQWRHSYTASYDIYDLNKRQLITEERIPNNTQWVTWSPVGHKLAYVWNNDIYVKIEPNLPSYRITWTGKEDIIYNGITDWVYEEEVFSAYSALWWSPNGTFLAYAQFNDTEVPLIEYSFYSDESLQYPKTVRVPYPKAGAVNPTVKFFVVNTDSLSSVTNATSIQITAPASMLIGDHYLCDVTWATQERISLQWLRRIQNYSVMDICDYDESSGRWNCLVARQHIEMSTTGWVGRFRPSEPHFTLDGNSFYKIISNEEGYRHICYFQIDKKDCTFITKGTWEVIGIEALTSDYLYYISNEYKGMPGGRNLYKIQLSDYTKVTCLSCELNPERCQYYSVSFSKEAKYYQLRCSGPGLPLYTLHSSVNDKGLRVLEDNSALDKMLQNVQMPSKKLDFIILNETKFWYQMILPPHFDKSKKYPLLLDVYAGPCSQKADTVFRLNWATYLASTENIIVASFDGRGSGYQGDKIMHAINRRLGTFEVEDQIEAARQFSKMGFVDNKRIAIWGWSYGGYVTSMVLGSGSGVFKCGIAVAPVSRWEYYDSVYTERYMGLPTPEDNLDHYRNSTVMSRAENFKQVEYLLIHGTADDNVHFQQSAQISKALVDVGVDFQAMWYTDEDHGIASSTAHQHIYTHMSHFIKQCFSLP
Numbered stars: 1 amine (or outer) side, 2 acyl side, 3 side chain; on linkers, the order of the positions; unused ones are H or OH. Bridge positions count the residues as written; N and C are the ends. Square brackets hold non-standard residues; d marks the D form. * marks the point of attachment. Ttds = 1,13-diamino-4,7,10-trioxatridecan-succinamic acid, O=C(CCC(=O)[*:2])NCCCOCCOCCOCCCN[*:1]; DOTA = O=C(O)CN1CCN(CC(=O)O)CCN(CC(=O)*)CCN(CC(=O)O)CC1; mXylylene = c1cc(C[*:1])cc(C[*:2])c1; Nle = CCCC[C@H](N)C(=O)O; Hexanoyl = CCCCCC(=O)*

binder	pIC50 (DPP4)
Hexanoyl-CPPTQFCD-NH2 (linker 1-7 via mXylylene; SMILES CCCCCC(=O)N[C@H]1CSCc2cccc(c2)CSC[C@@H](C(=O)N[C@@H](CC(=O)O)C(N)=O)NC(=O)[C@H](Cc2ccccc2)NC(=O)[C@H](CCC(N)=O)NC(=O)[C@H]([C@@H](C)O)NC(=O)[C@@H]2CCCN2C(=O)[C@@H]2CCCN2C1=O) [Hex-[Cys(3MeBn)-Pro-Pro-Thr-Gln-Phe-Cys]-Asp-NH2]	< 6 pIC50
Hexanoyl-CPPTQFC-OH (bridge 1-7; not fully specified (bridges); printed as Hex-[Cys(tMeBn(DOTA-AET))-Pro-Pro-Thr-Gln-Phe-Cys]-OH; also: DOTA-AET attached to tMeBn scaffold) [Hex-[Cys(tMeBn(DOTA-AET))-Pro-Pro-Thr-Gln-Phe-Cys]-OH]	< 6 pIC50
{DOTA}-[Ttds][Nle]CPPTEFC-NH2 (linker 3-9 via mXylylene; SMILES CCCC[C@H](NC(=O)CCC(=O)NCCCOCCOCCOCCCNC(=O)CN1CCN(CC(=O)O)CCN(CC(=O)O)CCN(CC(=O)O)CC1)C(=O)N[C@H]1CSCc2cccc(c2)CSC[C@@H](C(N)=O)NC(=O)[C@H](Cc2ccccc2)NC(=O)[C@H](CCC(=O)O)NC(=O)[C@H]([C@@H](C)O)NC(=O)[C@@H]2CCCN2C(=O)[C@@H]2CCCN2C1=O, also called 3BP-3319) [DOTA-Ttds-Nle-[Cys(3MeBn)-Pro-Pro-Thr-Glu-Phe-Cys]-NH2]	< 6 pIC50
